- Tested on: A549
- PROCEDURE DETAILS: Antiproliferative activity against A549t12 cell line
- Format: functional
- MEASUREMENT CONTEXT: Homo sapiens
PROPERTY MEASURED: GI50 (µM)

>  <MOLECULE>
C=C/C=C\[C@H](C)[C@H](OC(N)=O)[C@@H](C)[C@H](O)[C@@H](C)C/C(C)=C\[C@H](C)[C@@H](O)[C@@H](C)/C=C\[C@@H](O)C[C@@H]1OC(=O)[C@H](C)[C@@H](O)[C@H]1C [DISERMOLIDE]

>  <PROPERTY MEASURED>
GI50

>  <NUMERIC READOUT>
0.03

$$$$
>  <MOLECULE>
CC/C=C\[C@H](C)[C@H](OC(N)=O)[C@@H](C)[C@H](O)[C@@H](C)C/C(C)=C\[C@H](C)[C@@H](O)[C@@H](C)/C=C\[C@@H](O)C[C@@H]1OC(=O)[C@H](C)[C@@H](OC)[C@H]1C

>  <PROPERTY MEASURED>
GI50

>  <NUMERIC READOUT>
0.012

$$$$
>  <MOLECULE>
CC/C=C\[C@H](C)[C@H](OC(N)=O)[C@@H](C)[C@H](O)[C@@H](C)C/C(C)=C\[C@H](C)[C@@H](O)[C@@H](C)/C=C\[C@@H](O)C[C@@H]1OC(=O)NC[C@H]1C

>  <PROPERTY MEASURED>
GI50

>  <NUMERIC READOUT>
1

$$$$

====

// values below are reported GI50
- Test system: CCRF-CEM
- PROCEDURE DETAILS: Antiproliferative activity against resistant CCRF-CEM/PTX cell line
- Assay type: functional
- MEASUREMENT CONTEXT: Homo sapiens

>  <COMPOUND>
CC/C=C\[C@H](C)[C@H](OC(N)=O)[C@@H](C)[C@H](O)[C@@H](C)C/C(C)=C\[C@H](C)[C@@H](O)[C@@H](C)/C=C\[C@@H](O)C[C@@H]1OC(=O)[C@H](C)C[C@H]1C

>  <UNIT SYMBOL>
nM

>  <GI50>
65

$$$$
>  <COMPOUND>
CC/C=C\[C@H](C)[C@H](OC(N)=O)[C@@H](C)[C@H](O)[C@@H](C)C/C(C)=C\[C@H](C)[C@@H](O)[C@@H](C)/C=C\[C@@H](O)C[C@H]1CCC(=O)O1

>  <UNIT SYMBOL>
nM

>  <GI50>
285

$$$$
>  <COMPOUND>
CC/C=C\[C@H](C)[C@H](OC(N)=O)[C@@H](C)[C@H](O)[C@@H](C)C/C(C)=C\[C@H](C)[C@@H](O)[C@@H](C)/C=C\[C@@H](O)C[C@@H]1OC(=O)[C@H](C)[C@@H](OC)[C@H]1C

>  <UNIT SYMBOL>
nM

>  <GI50>
79

$$$$
>  <COMPOUND>
C=C/C=C\[C@H](C)[C@H](OC(N)=O)[C@@H](C)[C@H](O)[C@@H](C)C/C(C)=C\[C@H](C)[C@@H](O)[C@@H](C)/C=C\[C@@H](O)C[C@@H]1OC(=O)[C@H](C)[C@@H](O)[C@H]1C [DISERMOLIDE]

>  <UNIT SYMBOL>
nM

>  <GI50>
92

$$$$
